# test-system: human GluN1/GluN2B NMDA receptors (Homo sapiens, UniProt Q05586+Q13224)
# Sequence (Q13224 27-1484, other chains not shown): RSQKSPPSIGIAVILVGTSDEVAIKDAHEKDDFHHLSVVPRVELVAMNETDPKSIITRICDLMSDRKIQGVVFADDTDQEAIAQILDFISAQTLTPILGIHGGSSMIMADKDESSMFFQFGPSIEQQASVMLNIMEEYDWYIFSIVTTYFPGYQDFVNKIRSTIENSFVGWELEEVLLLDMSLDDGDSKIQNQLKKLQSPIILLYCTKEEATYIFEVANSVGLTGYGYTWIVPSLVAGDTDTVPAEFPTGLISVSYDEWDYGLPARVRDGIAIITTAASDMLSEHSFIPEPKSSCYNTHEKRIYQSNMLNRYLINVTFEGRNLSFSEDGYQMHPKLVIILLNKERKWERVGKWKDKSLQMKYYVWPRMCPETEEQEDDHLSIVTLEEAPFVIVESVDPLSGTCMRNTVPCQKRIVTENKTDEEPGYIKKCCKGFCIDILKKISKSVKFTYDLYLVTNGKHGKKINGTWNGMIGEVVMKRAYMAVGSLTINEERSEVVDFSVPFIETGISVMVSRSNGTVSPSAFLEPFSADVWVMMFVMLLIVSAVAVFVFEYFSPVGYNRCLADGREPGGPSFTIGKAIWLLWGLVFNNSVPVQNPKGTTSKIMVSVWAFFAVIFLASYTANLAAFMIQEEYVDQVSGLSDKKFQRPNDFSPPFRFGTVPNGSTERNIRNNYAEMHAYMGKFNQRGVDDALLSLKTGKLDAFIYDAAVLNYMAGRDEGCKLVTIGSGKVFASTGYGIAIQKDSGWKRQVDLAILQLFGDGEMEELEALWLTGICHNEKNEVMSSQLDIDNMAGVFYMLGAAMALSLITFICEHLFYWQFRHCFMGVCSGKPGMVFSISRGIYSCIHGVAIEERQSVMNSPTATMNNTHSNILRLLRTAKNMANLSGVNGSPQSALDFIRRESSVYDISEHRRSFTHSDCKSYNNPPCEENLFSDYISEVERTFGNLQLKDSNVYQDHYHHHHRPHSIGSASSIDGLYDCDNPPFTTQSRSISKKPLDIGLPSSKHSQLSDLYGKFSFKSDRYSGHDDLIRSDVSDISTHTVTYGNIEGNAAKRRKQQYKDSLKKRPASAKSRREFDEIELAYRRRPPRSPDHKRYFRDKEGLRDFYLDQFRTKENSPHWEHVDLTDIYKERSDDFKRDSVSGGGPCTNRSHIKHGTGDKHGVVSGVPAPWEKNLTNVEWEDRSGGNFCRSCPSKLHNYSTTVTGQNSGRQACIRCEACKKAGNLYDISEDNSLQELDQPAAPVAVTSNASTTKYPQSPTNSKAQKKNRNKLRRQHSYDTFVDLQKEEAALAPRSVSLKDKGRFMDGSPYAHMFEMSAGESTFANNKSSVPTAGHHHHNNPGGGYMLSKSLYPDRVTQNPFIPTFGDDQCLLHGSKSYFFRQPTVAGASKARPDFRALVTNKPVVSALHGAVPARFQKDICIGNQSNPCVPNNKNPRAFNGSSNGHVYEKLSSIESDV
# experimental-protocol: Cell-based calcium flux (FLIPR) assay on cloned human NR1/NR2B ion channels expressed in mammalian cells
# measurement-conditions: standard assay; human GluN1/GluN2B, calcium flux (FLIPR), glutamate ~EC80
So I've got a bunch of molecules here, and I need their IC50 values.
Unit µM implied. Number only.

Exam item: Form entry - test system: human GluN1/GluN2B NMDA receptors (Homo sapiens, UniProt Q05586+Q13224); read-out: IC50; molecule: Fc1ccc(-n2cc(CNc3ncc(C(F)(F)F)cn3)nn2)cc1C(F)F
Marked response: 0.108

Exam item: Form entry - test system: human GluN1/GluN2B NMDA receptors (Homo sapiens, UniProt Q05586+Q13224); read-out: IC50; molecule: Fc1cnc(OCc2cn(-c3ccc(Cl)c(OC(F)F)c3)nn2)nc1NCC(F)F
Marked response: 0.842

Exam item: Form entry - test system: human GluN1/GluN2B NMDA receptors (Homo sapiens, UniProt Q05586+Q13224); read-out: IC50; molecule: FC(F)c1cc(-n2cc(CNc3ccncn3)nn2)ccc1Cl
Marked response: 7.57

Exam item: Form entry - test system: human GluN1/GluN2B NMDA receptors (Homo sapiens, UniProt Q05586+Q13224); read-out: IC50; molecule: FC(F)Oc1cnc(OCc2cn(-c3ccc(Cl)c(OC(F)F)c3)nn2)nc1
Marked response: 0.006

Exam item: Form entry - test system: human GluN1/GluN2B NMDA receptors (Homo sapiens, UniProt Q05586+Q13224); read-out: IC50; molecule: CCc1cnc(OCc2cn(-c3cccc(F)c3)nn2)nc1
Marked response: 0.075

Exam item: Form entry - test system: human GluN1/GluN2B NMDA receptors (Homo sapiens, UniProt Q05586+Q13224); read-out: IC50; molecule: Cn1ccc(-c2cnc(OCc3cn(-c4ccc(F)c(C(C)(F)F)c4)nn3)nc2)n1
Marked response: 0.309

Exam item: Form entry - test system: human GluN1/GluN2B NMDA receptors (Homo sapiens, UniProt Q05586+Q13224); read-out: IC50; molecule: CC(F)(F)c1cccc(-n2cc(COc3nccc(CO)n3)nn2)c1
Marked response: 0.049

Exam item: Form entry - test system: human GluN1/GluN2B NMDA receptors (Homo sapiens, UniProt Q05586+Q13224); read-out: IC50; molecule: COCc1ccnc(OCc2cn(-c3cccc(C)c3)nn2)n1
Marked response: 0.249

Exam item: Form entry - test system: human GluN1/GluN2B NMDA receptors (Homo sapiens, UniProt Q05586+Q13224); read-out: IC50; molecule: Cc1cnc(OCc2cn(-c3cccc(C(F)(F)F)c3)nn2)nc1
Marked response: 0.012

Exam item: Form entry - test system: human GluN1/GluN2B NMDA receptors (Homo sapiens, UniProt Q05586+Q13224); read-out: IC50; molecule: FC(F)(F)Oc1ccc(-n2cc(COc3ncccn3)nn2)cc1
Marked response: 3.12

Exam item: Form entry - test system: human GluN1/GluN2B NMDA receptors (Homo sapiens, UniProt Q05586+Q13224); read-out: IC50; molecule: Fc1ccc(-n2cc(COc3ncc(N4CCC4)cn3)nn2)cc1OC(F)F
Marked response: 0.016

Exam item: Form entry - test system: human GluN1/GluN2B NMDA receptors (Homo sapiens, UniProt Q05586+Q13224); read-out: IC50; molecule: Nc1nc(OCc2cn(-c3ccc(F)c(OC(F)F)c3)nn2)ncc1F
Marked response: 0.013

Exam item: Form entry - test system: human GluN1/GluN2B NMDA receptors (Homo sapiens, UniProt Q05586+Q13224); read-out: IC50; molecule: Cc1ccc(OCc2cn(-c3ccc(F)c(C(F)F)c3)nn2)nc1
Marked response: 0.021

Exam item: Form entry - test system: human GluN1/GluN2B NMDA receptors (Homo sapiens, UniProt Q05586+Q13224); read-out: IC50; molecule: Cc1cnc(OCc2cn(-c3ccnc(C)c3)nn2)nc1
Marked response: 0.655

Exam item: Form entry - test system: human GluN1/GluN2B NMDA receptors (Homo sapiens, UniProt Q05586+Q13224); read-out: IC50; molecule: FC(F)Oc1cc(-n2cc(CNc3ccccn3)nn2)ccc1Cl
Marked response: 0.213

Exam item: Form entry - test system: human GluN1/GluN2B NMDA receptors (Homo sapiens, UniProt Q05586+Q13224); read-out: IC50; molecule: CC(F)(F)c1cc(-n2cc(COc3nccc(-c4cn[nH]c4)n3)nn2)ccc1F
Marked response: 1.36

Exam item: Form entry - test system: human GluN1/GluN2B NMDA receptors (Homo sapiens, UniProt Q05586+Q13224); read-out: IC50; molecule: COc1cnc(OCc2cn(-c3cccc(OC(F)(F)F)c3)nn2)nc1
Marked response: 0.013

Exam item: Form entry - test system: human GluN1/GluN2B NMDA receptors (Homo sapiens, UniProt Q05586+Q13224); read-out: IC50; molecule: CCc1cc(-n2cc(COc3ncc(C(C)(C)O)cn3)nn2)ccc1F
Marked response: 0.027

Exam item: Form entry - test system: human GluN1/GluN2B NMDA receptors (Homo sapiens, UniProt Q05586+Q13224); read-out: IC50; molecule: Cc1ccnc(OCc2cn(-c3ccc(F)c(C(F)F)c3)nn2)c1
Marked response: 0.17
